Provide the reported λmax (GH) of each item.
# PROCEDURE_SUMMARY: Spectroscopic properties of unbound sensors
# Format: physicochemical
# Design: unit not given here
# CONDITION_DESCRIPTION: unbound sensor, protonated form GH
Format: numeric value only, no unit, no commentary.

Recall and state the measured λmax (GH) for `CN(C)S(=O)(=O)Nc1ccc2c(-c3ccccc3)c(C=O)c(=O)oc2c1` .
368

Fill in λmax (GH) for record `CS(=O)(=O)Nc1ccc2c(-c3ccccc3)c(C=O)c(=O)oc2c1`
365

For the molecule `O=Cc1c(-c2ccccc2)c2ccc(O)cc2oc1=O` , give its reported λmax (GH).
368

Please give measured λmax (GH) of the following entry: `O=Cc1c(-c2ccccc2)c2ccc(NS(=O)(=O)c3cccs3)cc2oc1=O`
366

###

Assignment: determine reported λmax (G-) for the given molecules.
# PROCEDURE_SUMMARY: Spectroscopic properties of unbound sensors
# Format: physicochemical
# Design: unit not given here
# CONDITION_DESCRIPTION: unbound sensor, deprotonated form G-
Lab note: record just the number, no unit beside it.

Please give the documented λmax (G-) of `O=Cc1c(-c2ccccc2)c2ccc(NS(=O)(=O)c3cccs3)cc2oc1=O`
416

Output λmax (G-) of `CS(=O)(=O)Nc1ccc2c(-c3ccccc3)c(C=O)c(=O)oc2c1`
420

Quote λmax (G-) reported for CN(C)S(=O)(=O)Nc1ccc2c(-c3ccccc3)c(C=O)c(=O)oc2c1 [ES517] please.
419

Identify measured λmax (G-) associated with `O=Cc1c(-c2ccccc2)c2ccc(O)cc2oc1=O`
420

###

# PROCEDURE_SUMMARY: Spectroscopic properties of unbound sensors
# Type: physicochemical
# CONDITION_DESCRIPTION: excitation 488 nm
Would you kindly list λem (ex: 488 nm) for each of these molecules?
Enter your answer as a number in nm; do not include the unit.

Output λem (ex: 488 nm) of `CS(=O)(=O)Nc1ccc2c(-c3ccccc3)c(C=O)c(=O)oc2c1`
489

Entry `CN(C)S(=O)(=O)Nc1ccc2c(-c3ccccc3)c(C=O)c(=O)oc2c1` needs its λem (ex: 488 nm) filled in; supply it.
498

Return reported λem (ex: 488 nm). Input molecule: `O=Cc1c(-c2ccccc2)c2ccc(O)cc2oc1=O`
468

State its λem (ex: 488 nm): `O=Cc1c(-c2ccccc2)c2ccc(NS(=O)(=O)c3cccs3)cc2oc1=O`
494

###

Give measured pKa for each item. Keep answers brief.
# PROCEDURE_SUMMARY: pH titration of sensor (absorbance and fluorescence monitored), pKa
# Type: physicochemical
# CONDITION_DESCRIPTION: buffered solution of the sensor; unbound sensor; pH and fluorescence intensity data fit to a pH isotherm
A bare number is all that is needed in reply.

Output pKa of `O=Cc1c(-c2ccccc2)c2ccc(O)cc2oc1=O`
5.8

Consider the compound `O=Cc1c(-c2ccccc2)c2ccc(NS(=O)(=O)c3cccs3)cc2oc1=O` and give its recorded pKa.
5.2

Write down pKa measured for item `CS(=O)(=O)Nc1ccc2c(-c3ccccc3)c(C=O)c(=O)oc2c1`
5.9

Specify reported pKa for the compound shown: CN(C)S(=O)(=O)Nc1ccc2c(-c3ccccc3)c(C=O)c(=O)oc2c1 [ES517]
6.3
